These data points were gathered from paper PMC10786891.

tested-target: T1, EsCas13d, nuclease-dead (Eubacterium siraeum, UniProt B0MS50, R295A;H300A;R849A;H854A)
T1 sequence: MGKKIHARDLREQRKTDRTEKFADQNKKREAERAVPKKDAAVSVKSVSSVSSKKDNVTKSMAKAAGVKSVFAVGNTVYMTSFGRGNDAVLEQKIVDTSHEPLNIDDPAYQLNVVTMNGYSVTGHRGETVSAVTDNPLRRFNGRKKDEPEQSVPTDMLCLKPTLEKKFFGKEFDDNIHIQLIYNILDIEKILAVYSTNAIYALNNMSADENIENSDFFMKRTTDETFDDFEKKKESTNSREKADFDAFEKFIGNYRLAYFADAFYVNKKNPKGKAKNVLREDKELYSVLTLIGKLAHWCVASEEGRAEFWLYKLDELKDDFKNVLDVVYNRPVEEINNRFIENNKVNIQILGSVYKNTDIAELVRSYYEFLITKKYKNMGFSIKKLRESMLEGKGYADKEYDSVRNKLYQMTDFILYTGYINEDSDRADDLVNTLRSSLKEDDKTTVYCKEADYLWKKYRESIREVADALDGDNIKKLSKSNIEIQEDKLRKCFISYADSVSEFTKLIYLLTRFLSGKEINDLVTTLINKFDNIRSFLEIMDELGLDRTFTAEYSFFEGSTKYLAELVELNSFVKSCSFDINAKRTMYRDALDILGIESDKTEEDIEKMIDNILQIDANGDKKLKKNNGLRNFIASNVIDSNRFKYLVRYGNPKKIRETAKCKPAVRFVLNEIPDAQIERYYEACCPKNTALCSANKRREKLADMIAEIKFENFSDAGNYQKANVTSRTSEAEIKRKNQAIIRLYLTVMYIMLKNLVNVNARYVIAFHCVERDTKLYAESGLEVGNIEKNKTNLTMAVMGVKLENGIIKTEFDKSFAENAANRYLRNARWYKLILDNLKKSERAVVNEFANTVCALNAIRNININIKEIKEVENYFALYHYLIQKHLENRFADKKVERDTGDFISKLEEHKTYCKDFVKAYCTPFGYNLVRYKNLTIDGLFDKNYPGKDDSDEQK
protocol: crRNA (strand 1, pre-loaded); Mg2+; 40 mM Tris-HCl pH 7.5, 150 mM NaCl, 6 mM MgCl2, 1 mM DTT, 0.1% Tween-20, 0.2 mg/ml BSA; 25 C; 10 min per concentration, then washed
condition-label: tags: His6-TwinStrep-SUMO cleaved; N-terminal SNAP kept (SNAP-Surface 488); label: 3' end held by stalled T7 RNA polymerase
pKd: −log10 of the molar value.
Listed below: pKd values for each entry.

binder	pKd
target 1 insG 3' of 16,insC 3' of 13 (mixed) RNA 1: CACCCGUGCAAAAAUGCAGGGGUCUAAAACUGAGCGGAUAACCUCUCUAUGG RNA 2: GGGAAUGGAUCCACAUCUACGAAUUCGUACCAUAGAGGAGCGUUAUCCGCUCACCGAGAUCGGAAGAGCACACGU	7.47
target 2 MT 5'PFS UCA 3'PFS AUC (mixed) RNA 1: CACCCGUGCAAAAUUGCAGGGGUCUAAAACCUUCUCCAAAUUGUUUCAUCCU RNA 2: GGGAAUGGAUCCACAUCUACGAAUUCUCAAGGAUGAAACAAUUUGGAGAAGAUCAGAUCGGAAGAGCACACGU	8.44
target 1 MT 5'PFS GCG 3'PFS AAU (mixed) RNA 1: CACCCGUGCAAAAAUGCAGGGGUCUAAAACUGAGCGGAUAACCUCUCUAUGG RNA 2: GGGAAUGGAUCCACAUCUACGAAUUCGCGCCAUAGAGAGGUUAUCCGCUCAAAUAGAUCGGAAGAGCACACGU	7.47
target 1 C7G,U11A (mixed) RNA 1: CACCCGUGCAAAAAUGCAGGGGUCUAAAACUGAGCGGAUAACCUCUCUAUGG RNA 2: GGGAAUGGAUCCACAUCUACGAAUUCGUACCAUAGAGAGGAUAUGCGCUCACCGAGAUCGGAAGAGCACACGU	7.60
target 1 insC 3' of 17,insU 3' of 13 (mixed) RNA 1: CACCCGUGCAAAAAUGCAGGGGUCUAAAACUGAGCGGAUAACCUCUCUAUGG RNA 2: GGGAAUGGAUCCACAUCUACGAAUUCGUACCAUAGCAGAGUGUUAUCCGCUCACCGAGAUCGGAAGAGCACACGU	7.10
target 1 C7G,U10G (mixed) RNA 1: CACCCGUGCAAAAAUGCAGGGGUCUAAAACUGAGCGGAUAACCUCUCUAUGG RNA 2: GGGAAUGGAUCCACAUCUACGAAUUCGUACCAUAGAGAGGUGAUGCGCUCACCGAGAUCGGAAGAGCACACGU	7.70
